System: KM12 colon
Test: NCI tumour cell line growth inhibition, 48 h
Where a SMILES comes first, the peptide text is derived from it. Bridges are numbered along the chain shown (N, C = ends). [ ]: non-standard residue; d: D form. aThr = C[C@H](O)[C@H](N)C(=O)O
# TGI values compiled below

Sample answers from the record:
Query O=C(Nn1c(-c2ccccc2)nc2ccccc2c1=O)c1ccc(Cl)cc1 yields TGI of > 100 µM

Query Cc1ccc(NC(=O)c2cc(S(=O)(=O)Nc3nnc(-c4ccccc4)c(-c4ccccc4)n3)c(SCc3ccccc3)cc2Cl)cc1 yields TGI of 50.7 µM

Query Cc1ccc(S[C@@](C=O)(NC(=O)OCc2ccccc2)C(F)(F)F)cc1 yields TGI of 52.8 µM

Query CCCCCC(=O)O[C@]1(C(C)=O)CCC2C3CCC4=CC(=O)CC[C@]4(C)C3CC[C@@]21C (stereo partly specified) yields TGI of 5.24 µM

Query CCN(CC)CCNc1ccc2ncn3c4ccc(O)cc4c(=O)c1c23 yields TGI of 10.6 µM

***
Query COc1ccc(/C=C2\CCC/C(=C\c3ccc(OC)c(OC)c3)C2=O)cc1OC yields TGI of > 32.5 µM

Query O=C1c2ccccc2C(=O)c2c(NC3CCCCC3)ccc(Nc3ccc(S(=O)(=O)O)cc3)c21 yields TGI of > 100 µM

Query CC(=O)OCC(=O)[C@@]1(O)CC[C@H]2[C@@H]3C[C@H](C)C4=CC(=O)C=C[C@]4(C)[C@@]3(F)[C@@H](O)C[C@@]21C yields TGI of > 100 µM

Query Cc1nc2c(sc3nc4c(cc32)CCC4)c(=O)o1 yields TGI of > 100 µM

Query CCO/C=C1\SC(=S)N(c2ccc(OCC)cc2)C1=O yields TGI of > 100 µM

Query O=S(=O)(/N=C(\NO)Nc1ccc(Cl)cc1)c1cc(C(F)(F)F)cc(C(F)(F)F)c1 yields TGI of 41.1 µM

Query O=C1CC(O)c2cscc21 (stereo unspecified) yields TGI of > 100 µM

Query CC(C)C[C@@H]1NC(=O)[C@@H]2CCCN2C(=O)[C@@H]2CCCN2C(=O)[C@H](CC(C)C)NC(=O)[C@H](CO)NC(=O)[C@H](CCCCN)NC(=O)[C@H]([C@H](C)O)NC(=O)[C@@H]2CSSC[C@@H](NC1=O)C(=O)N[C@@H](Cc1ccccc1)C(=O)N1CCC[C@H]1C(=O)N[C@@H](CC(=O)O)C(=O)NCC(=O)N[C@@H](CCCN=C(N)N)C(=O)N2 (cyclo(C[aThr]KSLPPL[dC]FPDGR); disulfide 1-9) yields TGI of > 50 µM

Numbers sourced from PubChem BioAssay (NCI).
